Where do these numbers come from? They come from patent US10975037B2.

The entries below come with measured inhibition at 3 µM values attached.
# system tested: full-length human RORγt (Homo sapiens (Human))
# Sequence (P51449 other isoform, or with tags, fused parts or gaps): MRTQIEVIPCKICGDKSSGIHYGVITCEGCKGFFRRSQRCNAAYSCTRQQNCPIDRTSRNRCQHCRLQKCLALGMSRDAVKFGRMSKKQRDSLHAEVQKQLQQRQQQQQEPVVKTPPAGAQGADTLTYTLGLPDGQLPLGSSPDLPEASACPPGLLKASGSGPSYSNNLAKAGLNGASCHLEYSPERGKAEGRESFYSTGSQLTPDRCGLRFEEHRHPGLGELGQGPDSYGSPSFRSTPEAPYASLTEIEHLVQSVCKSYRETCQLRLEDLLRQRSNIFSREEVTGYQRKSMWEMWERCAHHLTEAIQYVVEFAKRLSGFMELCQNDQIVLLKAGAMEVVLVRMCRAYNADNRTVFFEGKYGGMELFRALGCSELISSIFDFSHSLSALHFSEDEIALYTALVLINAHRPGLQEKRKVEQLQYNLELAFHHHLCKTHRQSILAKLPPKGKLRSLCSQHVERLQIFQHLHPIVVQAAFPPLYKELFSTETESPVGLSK
# method description: RORγt (full-length human) reporter assay, conditions A or B, HEK293T cells
# Type: cell-based
# study conditions: HEK-293T; 3 μM compound concentration (footnote *); read-out: RORγt (FL) Reporter Assay A or B, % inhibition
# Experimental: RORγt (Full-Length Human) Reporter Assay: HEK293T cells were plated at 35,000 per well in 96-well plate in medium of DMEM with 10% FBS. […] Firefly luciferase luminescence was measured using a BMG Pherastar plate reader. […] Renilla luminescence was measured using a BMG Pherastar plate reader. […] IC50s were generated by plotting final Renilla normalized data against compound concentration and percent inhibition was calculated against DMSO control. […]
Structures can show the parent of a compound that is named as a salt.
# include the unit after the value

Some compounds with recorded inhibition at 3 µM:
>>> measured("Cn1nc(C(=O)NC[C@]2(O)CC[C@@H](S(C)(=O)=O)C[C@H]2O)c(Cl)c1-c1ccc(CCCC(F)(F)F)cc1OC(F)F (stereo in doubt)")
"96%"
>>> measured("CCn1nc(C(=O)NC[C@]2(O)CC[C@@H](S(C)(=O)=O)CC2)c(Cl)c1-c1ccc(C2(O)CCC(F)(F)CC2)cc1OC(F)F")
"98%"
>>> measured("Cc1c(C(=O)NC[C@]2(O)CC[C@@H](S(C)(=O)=O)CC2)nn(C)c1-c1ccc(CCCC(F)(F)F)cc1OC(F)F")
"81%"

Output inhibition at 3 µM of CCn1nc(C(=O)NC[C@]2(O)CC[C@@H](S(C)(=O)=O)C[C@H]2O)c(C)c1-c1ccc(C[C@H](C)C(F)(F)F)cc1OC(F)F (stereo in doubt)
100%

Provide inhibition at 3 µM value for the following compound: CCn1nc(C(=O)NC[C@@H]2CC[C@@H](S(C)(=O)=O)C[NH+]2CC(=O)ON)c(Cl)c1-c1ccc(CC(C)(C)C(F)(F)F)cc1OC(F)F (stereo in doubt) [Example 63, Trifluoroacetic Acid Salt]
109%

Look up inhibition at 3 µM of CCn1nc(C(=O)NC[C@@]2(O)CC[C@H](S(C)(=O)=O)C[C@@H]2O)c(C)c1-c1ccc(C[C@H](C)C(F)(F)F)cc1OC(F)F (stereo in doubt) and report it.
95%

Retrieve inhibition at 3 µM measured for CCn1nc(C(=O)NC[C@]2(O)CC[C@@H](S(C)(=O)=O)CC2)c(Cl)c1-c1ccc([C@@H](O)C(C)(C)C(F)(F)F)cc1OC(F)F (single isomer, unassigned) and print it.
92%

Please indicate inhibition at 3 µM recorded for CCn1nc(C(=O)NC[C@H]2CC[C@@H](S(C)(=O)=O)CN2)c(Cl)c1-c1ccc(CC(C)(C)C(F)(F)F)cc1OC(F)F (stereo in doubt) [Example 11, Hydrobromide]
100%

Give the value of inhibition at 3 µM reported for the following: Cn1nc(C(=O)NC[C@@]2(O)CC[C@H](S(C)(=O)=O)C[C@@H]2O)c(Cl)c1-c1ccc(CCCC(F)(F)F)cc1OC(F)F (stereo in doubt)
73%

Supply recorded inhibition at 3 µM for Cn1nc(C(=O)NC[C@@]2(O)CC[C@H](S(C)(=O)=O)C[C@@H]2O)c(Cl)c1-c1ccc(CC(C)(C)C(F)(F)F)cc1OC(F)F (relative stereo) here.
85%
